The measurements presented in this section are drawn from patent US20160046618A1.

- study-target: human recombinant BACE1 (Homo sapiens (Human), UniProt P56817)
- Sequence (P56817 46-501): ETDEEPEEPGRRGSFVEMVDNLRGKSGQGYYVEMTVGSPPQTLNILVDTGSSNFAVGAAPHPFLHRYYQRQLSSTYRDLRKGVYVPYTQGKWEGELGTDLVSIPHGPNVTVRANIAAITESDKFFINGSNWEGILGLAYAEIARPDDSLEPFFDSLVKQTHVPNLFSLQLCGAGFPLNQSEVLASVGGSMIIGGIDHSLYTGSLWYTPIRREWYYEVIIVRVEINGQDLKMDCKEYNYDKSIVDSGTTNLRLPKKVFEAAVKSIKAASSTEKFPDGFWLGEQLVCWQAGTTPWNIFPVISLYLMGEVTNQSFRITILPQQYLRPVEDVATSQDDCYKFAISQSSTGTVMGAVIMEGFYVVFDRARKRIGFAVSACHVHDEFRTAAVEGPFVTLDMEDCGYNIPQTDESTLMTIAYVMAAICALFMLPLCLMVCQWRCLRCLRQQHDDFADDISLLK
- assay-remarks: In vitro enzymatic BACE1 FRET assay
- Assay type: biochemical
- test-parameters: read-out: IC50 IP (μM) BACE1 enzyme
IC50 strictly under 0.002 µM means criterion met; at 0.002 µM or over means criterion not met.

{"molecule": "C#C[C@H](C)Oc1cnc(C(=O)Nc2ccc(F)c([C@@]3(C)N=C(N)S[C@@]4(C(=O)NC)C[C@H]43)c2)cn1", "label-value": "criterion met"}
{"molecule": "COC[C@]12C[C@H]1[C@@](C)(c1cc(Nc3ncnc4cc(OCc5nc(C)oc5C)cnc34)cc(F)c1F)N=C(N)S2", "label-value": "criterion not met"}
{"molecule": "C[C@]1(c2cc(NC(=O)c3cnc(OCC(F)(F)F)cn3)ccc2F)N=C(N)S[C@@]2(C(=O)NC3CC3(F)F)C[C@H]21 (stereo partly shown)", "label-value": "criterion met"}
{"molecule": "C#C[C@H](C)Oc1cnc2c(Nc3cc(F)c(F)c([C@@]4(C)N=C(N)S[C@@]5(C(=O)N6CCCC6)C[C@H]54)c3)nccc2n1", "label-value": "criterion not met"}
{"molecule": "CN(C)C(=O)CC[C@]12C[C@H]1[C@@](CF)(c1cc(NC(=O)c3ccc(Cl)cn3)ccc1F)N=C(N)S2", "label-value": "criterion met"}
{"molecule": "COC[C@]12C[C@H]1[C@@](C)(c1cc(NC(=O)c3ncc(OCC(F)(F)F)cc3C)ccc1F)N=C(N)S2", "label-value": "criterion not met"}
{"molecule": "C#CCOc1cnc2c(Nc3ccc(F)c([C@@]4(CF)N=C(N)S[C@@]5(/C=C/C(=O)N(C)C)C[C@H]54)c3)nccc2n1", "label-value": "criterion met"}
{"molecule": "C[C@]1(c2cc(Nc3nccc4nc(OCc5ncco5)cnc34)cnc2F)N=C(N)S[C@]2(CO)[C@H]1C2(F)F", "label-value": "criterion met"}
{"molecule": "C#C[C@H](C)Oc1cnc(C(=O)Nc2cc(F)c(F)c([C@@]3(C)N=C(N)S[C@@]4(C(=O)NC)C[C@H]43)c2)cn1", "label-value": "criterion met"}
{"molecule": "COC[C@]12C[C@H]1[C@@](C)(c1cc(NC(=O)c3ncc(OCc4ncco4)nc3C)cc(F)c1F)N=C(N)S2", "label-value": "criterion not met"}
{"molecule": "NC1=N[C@](CF)(c2cc(NC(=O)c3ccc(Cl)cn3)ccc2F)[C@@H]2C[C@]2(c2cnco2)S1", "label-value": "criterion met"}
{"molecule": "COC[C@]12C[C@H]1[C@@](C)(c1cc(Nc3nccc4cc(OCc5cnco5)cnc34)cc(F)c1F)N=C(N)S2", "label-value": "criterion not met"}
{"molecule": "C[C@]1(c2cc(NC(=O)c3ncc(OCC(F)(F)F)cc3Cl)cc(F)c2F)N=C(N)S[C@@]2(CF)C[C@H]21", "label-value": "criterion not met"}

====

- study-target: human recombinant BACE2 (Homo sapiens (Human))
- Sequence (Q9Y5Z0 63-518): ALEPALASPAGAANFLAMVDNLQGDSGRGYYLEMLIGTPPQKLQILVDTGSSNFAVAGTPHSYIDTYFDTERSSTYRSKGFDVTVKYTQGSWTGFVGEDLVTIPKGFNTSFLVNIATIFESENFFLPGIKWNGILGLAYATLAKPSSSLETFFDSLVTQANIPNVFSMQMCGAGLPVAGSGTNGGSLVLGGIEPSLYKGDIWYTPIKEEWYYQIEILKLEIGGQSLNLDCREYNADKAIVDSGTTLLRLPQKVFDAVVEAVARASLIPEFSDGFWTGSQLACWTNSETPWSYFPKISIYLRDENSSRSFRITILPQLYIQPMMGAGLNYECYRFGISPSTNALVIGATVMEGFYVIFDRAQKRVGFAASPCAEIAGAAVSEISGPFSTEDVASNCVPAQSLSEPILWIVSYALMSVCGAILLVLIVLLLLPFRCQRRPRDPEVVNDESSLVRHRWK
- assay-remarks: In vitro enzymatic BACE2 FRET assay
- Type: biochemical
- test-parameters: read-out: IC50 IP (μM) BACE2 enzyme
Entries and their IC50 values follow.

{"compound": "C#CCOc1ccc(C(=O)Nc2cc(F)c(F)c([C@@]3(C)N=C(N)S[C@@]4(S(C)(=O)=O)C[C@H]43)c2)nc1 [Example 743]", "result-operator": "=", "IC50 (µM)": 0.00543}
{"compound": "C#CCOc1cnc2c(Nc3cc(F)c(F)c([C@@]4(C)N=C(N)S[C@@]5(C(=O)N(C)C)C[C@H]54)c3)nccc2n1 [Example 912]", "result-operator": "=", "IC50 (µM)": 0.00101}
{"compound": "C[C@]1(c2cc(NC(=O)c3ccc(OCc4ncco4)cn3)cc(F)c2F)N=C(N)S[C@@]2(S(C)(=O)=O)C[C@H]21 [Example 745]", "result-operator": "=", "IC50 (µM)": 0.0257}
{"compound": "NC1=N[C@](CF)(c2cc(NC(=O)c3ccc(Cl)cn3)ccc2F)[C@@H]2C[C@]2(/C=C/C(=O)O)S1 [Example 757]", "result-operator": "<", "IC50 (µM)": 0.00203}

====

- study-target: Recombinant Cat D (Homo sapiens (Human))
- Sequence (P07339 65-412): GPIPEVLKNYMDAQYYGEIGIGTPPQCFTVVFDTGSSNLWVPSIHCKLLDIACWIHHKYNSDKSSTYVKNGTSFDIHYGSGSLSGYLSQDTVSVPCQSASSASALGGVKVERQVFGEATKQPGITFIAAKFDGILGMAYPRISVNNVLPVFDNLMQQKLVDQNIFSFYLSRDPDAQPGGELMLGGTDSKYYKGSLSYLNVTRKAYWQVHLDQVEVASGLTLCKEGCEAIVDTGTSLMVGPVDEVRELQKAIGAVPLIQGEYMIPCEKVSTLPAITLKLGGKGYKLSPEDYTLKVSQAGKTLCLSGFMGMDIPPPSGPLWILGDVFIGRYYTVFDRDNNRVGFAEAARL
- assay-remarks: In vitro enzymatic Cathepsin D (Cat D) FRET assay
- Format: biochemical
- test-parameters: read-out: IC50 IP (μM) CatD

{"compound": "C#CCOc1cnc2c(Nc3cc(F)c(F)c([C@@]4(C)N=C(N)S[C@@]5(C#N)C[C@H]54)c3)nccc2n1 [Example 916]", "IC50 / µM": 84.2}
{"compound": "C#CCOc1cnc2c(Nc3cnc(OC)c([C@@]4(C)N=C(N)S[C@@]5(CF)C[C@H]54)c3)ncnc2c1 [Example 625]", "IC50 / µM": 730}
{"compound": "C#C[C@H](C)Oc1cnc(C(=O)Nc2cc(F)c(F)c([C@@]3(C)N=C(N)S[C@@]4(COC)C[C@H]43)c2)cn1 [Example 1009]", "IC50 / µM": 936}
{"compound": "C[C@]1(c2cc(Nc3nccc4cc(C#N)cnc34)cnc2F)N=C(N)S[C@H]2C[C@H]21 [Example 641]", "IC50 / µM": 1430}

====

- study-target: human recombinant BACE2 (Homo sapiens (Human))
- assay-remarks: In vitro enzymatic BACE2 FRET assay
- Assay type: biochemical
- test-parameters: read-out: IC50 IP (μM) BACE2 enzyme
readout-name: log10 of IC50 (log10 of the value in µM)

{"substance-smiles": "C[C@]1(c2cc(NC(=O)c3ccc(Cl)cn3)cc(F)c2F)N=C(N)S[C@@H]2[C@H]1C2(F)F", "study-target": "human recombinant BACE2 (Homo sapiens (Human))", "log10 of IC50": -2.55}
{"substance-smiles": "C#CCOc1cnc2c(Nc3cnc(F)c([C@@]4(C)N=C(N)S[C@@]5(CO)C[C@H]54)c3)nccc2n1", "study-target": "human recombinant BACE2 (Homo sapiens (Human))", "log10 of IC50": -1.70}
{"substance-smiles": "COC[C@]12C[C@H]1[C@@](C)(c1cc(NC(=O)c3ncc(OCc4ncco4)nc3C)ccc1F)N=C(N)S2", "study-target": "human recombinant BACE2 (Homo sapiens (Human))", "log10 of IC50": -1.60}
{"substance-smiles": "C[C@]1(c2cc(NC(=O)c3cnc(OCC(F)(F)F)cn3)ccc2F)N=C(N)S[C@@]2(C(=O)NCC(F)F)C[C@H]21", "study-target": "human recombinant BACE2 (Homo sapiens (Human))", "log10 of IC50": -1.12}
{"substance-smiles": "COC[C@]12C[C@H]1[C@@](C)(c1cc(NC(=O)c3cnc(OC4COC4)cn3)ccc1F)N=C(N)S2", "study-target": "human recombinant BACE2 (Homo sapiens (Human))", "log10 of IC50": 0.21}
{"substance-smiles": "CC(C)NC(=O)[C@]12C[C@H]1[C@@](C)(c1cc(NC(=O)c3cnc(OCC(F)(F)F)cn3)ccc1F)N=C(N)S2", "study-target": "human recombinant BACE2 (Homo sapiens (Human))", "log10 of IC50": -0.57}
{"substance-smiles": "CC#C[C@]12C[C@H]1[C@@](CF)(c1cc(Nc3nccc4nc(OCc5ncco5)cnc34)ccc1F)N=C(N)S2", "study-target": "human recombinant BACE2 (Homo sapiens (Human))", "log10 of IC50": -1.18}
{"substance-smiles": "Cc1nnc(COc2cnc3c(Nc4cc(F)c(F)c([C@@]5(C)N=C(N)S[C@@]6(C(F)F)C[C@@H]56)c4)nccc3n2)o1", "study-target": "human recombinant BACE2 (Homo sapiens (Human))", "log10 of IC50": -0.47}

====

- study-target: human recombinant BACE1 (Homo sapiens (Human))
- assay-remarks: In vitro enzymatic BACE1 FRET assay
- Type: biochemical
- test-parameters: read-out: IC50 IP (μM) BACE1 enzyme

{"compound": "Cc1noc(COc2cnc3c(Nc4ccc(F)c([C@@]5(CF)N=C(N)S[C@@]6(CF)C[C@H]65)c4)nccc3n2)n1 [Example 880]", "IC50 (µM)": 0.00452}
{"compound": "C#CCOc1cnc2c(Nc3ccc(F)c([C@@]4(C)N=C(N)S[C@]5(C(C)(C)O)[C@H]4C5(F)F)c3)nccc2n1 [Example 712]", "IC50 (µM)": 0.000782}
{"compound": "CNC(=O)[C@]12C[C@H]1[C@@](C)(c1cc(NC(=O)c3cnc(OCC(F)(F)C(F)F)cn3)cc(F)c1F)N=C(N)S2 [Example 963]", "IC50 (µM)": 0.000194}
{"compound": "C#CCOc1cnc(C(=O)Nc2ccc(F)c([C@@]3(C)N=C(N)S[C@]4(CO)[C@H]3C4(F)F)c2)cn1 [Example 749]", "IC50 (µM)": 0.000319}
